Overview of recorded IC50 for various compounds
- Tested on: HCV Genotype 2b, NS5B Mutation none
- RUN_DESCRIPTION: microbe, parasite or virus in culture
- Format: cell-based
- PROTOCOL_CONDITIONS: Hepatitis C virus, read-out: IC50 Value

// known answers, use as guide
INSERT INTO results (compound, recorded_result) VALUES
  ('CC(C)OC(=O)[C@H](C)N[P@](=O)(OCC1O[C@@H](n2cnc3c(N(C)C)nc(N)nc32)[C@](C)(F)[C@@H]1O)Oc1ccccc1 (stereo partly drawn)', '3 nM'),
  ('CC(C)OC(=O)[C@H](C)N[P@](=O)(OCC1O[C@@H](n2cnc3c(N(C)C4CC4)nc(N)nc32)[C@](C)(F)[C@@H]1O)Oc1ccccc1 (stereo partly drawn)', '3.1 nM');

Please find the next compound below.
Query: Please report the measured IC50 for CNc1nc(N)nc2c1ncn2[C@@H]1OC(CO[P@@](=O)(N[C@@H](C)C(=O)OC(C)C)Oc2ccccc2)[C@@H](O)[C@@]1(C)F (stereo partly drawn)
Response: 6.3 nM

---

- RUN_DESCRIPTION: Cytotoxicity by XTT staining in replicon cells
- PROTOCOL_CONDITIONS: human
- Description: The plates were cultured for 24 hours prior to the addition of compounds. Six serial one half log dilutions of the test articles (high test concentration of 100.0 μM or high test concentration of 1.0 μM) and human interferon-alpha2b (high test 10.0 U/ml) were prepared in cell culture medium and added to the cultured cells in triplicate wells for each dilution. Six wells in the test plates received medium alone as an untreated control. […]
PARAMETER_MEASURED: CC50 at 72 h

// known answers, use as guide
INSERT INTO results (compound, parameter_measured, recorded_result) VALUES
  ('CCN(C)c1nc(N)nc2c1ncn2[C@@H]1O[C@H](CO)[C@@H](O)[C@@]1(C)F', 'CC50 at 72 h', '> 100 µM'),
  ('CC(C)OC(=O)[C@H](C)N[P@@](=O)(OCC1O[C@@H](n2cnc3c(N(C)C4CC4)nc(N)nc32)[C@](C)(F)[C@@H]1O)Oc1ccccc1 (stereo partly shown)', 'CC50 at 72 h', '> 100 µM'),
  ('C#C[C@@]1(F)[C@H](O)[C@@H](CO)O[C@H]1n1cnc2c(N(C)C3CC3)nc(N)nc21', 'CC50 at 72 h', '21.6 µM');

Please find the next compound below.
Query: Please report the measured CC50 at 72 h for CNc1nc(NC(=O)C(C)C)nc2c1ncn2[C@@H]1O[C@H](CO)[C@@H](O)[C@@]1(C)F
Response: > 100 µM

---

- TARGET: UniProtKB Q9WMX2
- Sequence (Q9WMX2 2420-3010): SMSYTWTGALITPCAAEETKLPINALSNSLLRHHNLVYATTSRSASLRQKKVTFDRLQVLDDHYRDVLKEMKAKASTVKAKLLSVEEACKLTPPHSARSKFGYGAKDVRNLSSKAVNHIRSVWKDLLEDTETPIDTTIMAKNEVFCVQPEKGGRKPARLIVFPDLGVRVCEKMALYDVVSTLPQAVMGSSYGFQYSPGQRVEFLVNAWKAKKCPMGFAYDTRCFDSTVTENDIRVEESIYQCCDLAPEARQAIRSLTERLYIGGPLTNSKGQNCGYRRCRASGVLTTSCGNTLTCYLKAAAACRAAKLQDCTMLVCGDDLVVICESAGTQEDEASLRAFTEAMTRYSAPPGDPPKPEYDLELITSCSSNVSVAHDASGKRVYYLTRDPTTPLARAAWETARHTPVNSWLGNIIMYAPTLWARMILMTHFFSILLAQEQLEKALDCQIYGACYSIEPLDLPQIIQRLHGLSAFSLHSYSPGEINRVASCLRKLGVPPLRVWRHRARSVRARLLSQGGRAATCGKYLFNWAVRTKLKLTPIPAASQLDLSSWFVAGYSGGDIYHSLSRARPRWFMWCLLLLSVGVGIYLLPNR
PARAMETER_MEASURED: pIC50
# reply with the number alone; pIC50 is -log10 of concentration in mol/L

Query: State, for UniProtKB Q9WMX2, measured pIC50 of the compound listed here: C[C@@]1(F)[C@H](O)[C@@H](COP(=O)(O)OP(=O)(O)OP(=O)(O)O)O[C@H]1n1cnc2c(=O)[nH]c(N)nc21
Response: 6.82

---

Overview of recorded pIC50 for various compounds
- System: HCV Genotype 1b, NS5B Mutation none
- RUN_DESCRIPTION: microbe, parasite or virus in culture
- Format: cell-based
- PROTOCOL_CONDITIONS: Hepatitis C virus, read-out: IC50 Value
# reply with the number alone; pIC50 is -log10 of concentration in mol/L

// known answers, use as guide
INSERT INTO results (compound, recorded_result) VALUES
  ('CNc1nc(N)nc2c1ncn2[C@@H]1OC(CO[P@@](=O)(N[C@@H](C)C(=O)OC(C)C)Oc2ccccc2)[C@@H](O)[C@@]1(C)F (stereo partly drawn) [Compound 5-2]', 7.97),
  ('CC(C)OC(=O)[C@H](C)N[P@](=O)(OCC1O[C@@H](n2cnc3c(N(C)C)nc(N)nc32)[C@](C)(F)[C@@H]1O)Oc1ccccc1 (stereo partly drawn) [Compound 25]', 8.23);

Please find the next compound below.
Query: Please report the measured pIC50 for CC(C)OC(=O)[C@H](C)N[P@](=O)(OCC1O[C@@H](n2cnc3c(N(C)C4CC4)nc(N)nc32)[C@](C)(F)[C@@H]1O)Oc1ccccc1 (stereo partly drawn) [Compound 27]
Response: 8.30

---

- RUN_DESCRIPTION: Cytotoxicity by XTT staining in replicon cells
- PROTOCOL_CONDITIONS: human
Overview of recorded CC50 at 72 h for various compounds

// known answers, use as guide
INSERT INTO assay_data (compound, parameter_measured, recorded_result) VALUES
  ('CC(C)OC(=O)[C@H](C)NP(=O)(OCC1O[C@@H](n2cnc3c(N)nc(N)nc32)[C@](C)(F)[C@@H]1O)Oc1ccccc1 (stereo partly shown)', 'CC50 at 72 h', '> 100 µM'),
  ('CC(C)OC(=O)[C@H](C)N[P@@](=O)(OCC1O[C@@H](n2ccc(=O)[nH]c2=O)[C@](C)(F)[C@@H]1O)Oc1ccccc1 (stereo partly shown)', 'CC50 at 72 h', '> 100 µM'),
  ('C#C[C@@]1(F)[C@H](O)C(COP(=O)(N[C@@H](C)C(=O)OC(C)C)Oc2ccccc2)O[C@H]1n1cnc2c(N(C)C3CC3)nc(N)nc21 (stereo partly shown)', 'CC50 at 72 h', '1.68 µM');

Please find the next compound below.
Query: Please report the measured CC50 at 72 h for CCOc1nc(N)nc2c1ncn2[C@@H]1O[C@@H]2CO[P@](=O)(OC(C)C)O[C@H]2[C@@]1(C)F
Response: > 100 µM

---

- Tested on: Huh-7 luc/neo ET cells
- RUN_DESCRIPTION: Cytotoxicity by XTT staining in replicon cells
- PROTOCOL_CONDITIONS: read-out: TC50; FIG. 3 legend
PARAMETER_MEASURED: CC50

Query: Please report the measured CC50 for CC(C)OC(=O)[C@H](C)N[P@](=O)(OCC1O[C@@H](n2cnc3c(N(C)C)nc(N)nc32)[C@](C)(F)[C@@H]1O)Oc1ccccc1 (stereo partly shown) [Compound 25]
Response: > 100 µM

---

- RUN_DESCRIPTION: Cytotoxicity by XTT staining in replicon cells
- PROTOCOL_CONDITIONS: human
PARAMETER_MEASURED: CC50 at 72 h

// known answers, use as guide
INSERT INTO assay_data (compound, recorded_result) VALUES
  ('C#C[C@@]1(F)[C@H](O)C(COP(=O)(N[C@@H](C)C(=O)OC(C)C)Oc2ccccc2)O[C@H]1n1cnc2c(N(C)C)nc(N)nc21 (stereo partly shown)', '0.68 µM'),
  ('CNc1nc(N)nc2c1ncn2[C@@H]1OC(COP(=O)(N[C@@H](C)C(=O)OC(C)C)Oc2ccccc2)[C@@H](O)[C@@]1(C)F (mixture of isomers)', '> 100 µM');

Query: Please report the measured CC50 at 72 h for CNc1nc(N)nc2c1ncn2[C@@H]1O[C@H](CO)[C@@H](O)[C@@]1(C)F
Response: > 100 µM

Query: Please report the measured CC50 at 72 h for C[C@@]1(F)[C@H](O)C(CO)O[C@H]1n1cnc2c(N)nc(N)nc21 (stereo partly shown)
Response: > 100 µM

---

- Tested on: micro-patterned human hepatocyte co-cultures
- RUN_DESCRIPTION: Human Hepatocyte Co-Cultures (HepatoPac): cytotoxicity and hepatocyte health
- Type: cell-based
- PROTOCOL_CONDITIONS: Homo sapiens, Hepatocyte, 48 h, Table 6, Day 2; read-out: Effect on Albumin Secretion, 50% Inhibitory Concentration (IC50)
Overview of recorded IC50 for various molecules

INSERT INTO assay_data (molecule, target, recorded_result) VALUES
  ('CNc1nc(N)nc2c1ncn2[C@@H]1OC(CO[P@@](=O)(N[C@@H](C)C(=O)OC(C)C)Oc2ccccc2)[C@@H](O)[C@@]1(C)F (some centres unmarked) [Compound 5-2]', 'micro-patterned human hepatocyte co-cultures', '> 30 µM');

Please find the next molecule below.
Query: Please report the measured IC50 for COc1nc(N)nc2c1ncn2[C@@H]1O[C@H](COP(=O)(N[C@@H](C)C(=O)OCC(C)(C)C)Oc2cccc3ccccc23)[C@@H](O)[C@@]1(C)O (some centres unmarked) [INX-189]
Response: > 30 µM

---

Overview of recorded CC50 at 72 h for various compounds
- RUN_DESCRIPTION: Cytotoxicity by XTT staining in replicon cells
- PROTOCOL_CONDITIONS: human

// known answers, use as guide
INSERT INTO results (compound, parameter_measured, recorded_result) VALUES
  ('C#C[C@@]1(F)[C@H](O)C(COP(=O)(N[C@@H](C)C(=O)OC(C)C)Oc2ccccc2)O[C@H]1n1cnc2c(NC)nc(N)nc21 (stereo partly drawn)', 'CC50 at 72 h', '> 100 µM'),
  ('C#C[C@@]1(F)[C@H](O)[C@@H](CO)O[C@H]1n1cnc2c(NC)nc(N)nc21', 'CC50 at 72 h', '> 100 µM');

Please find the next compound below.
Query: Please report the measured CC50 at 72 h for CCCN(C)c1nc(N)nc2c1ncn2[C@@H]1OC(COP(=O)(N[C@@H](C)C(=O)OC(C)C)Oc2ccccc2)[C@@H](O)[C@@]1(C)F (stereo partly drawn)
Response: > 100 µM

Source: patent US12084473B2
